These measurements were taken from patent US20250136578A1.

Biological target: AR / CBP ternary complex (Homo sapiens, UniProt P10275+Q92793)
Sequence (P10275 whole entry): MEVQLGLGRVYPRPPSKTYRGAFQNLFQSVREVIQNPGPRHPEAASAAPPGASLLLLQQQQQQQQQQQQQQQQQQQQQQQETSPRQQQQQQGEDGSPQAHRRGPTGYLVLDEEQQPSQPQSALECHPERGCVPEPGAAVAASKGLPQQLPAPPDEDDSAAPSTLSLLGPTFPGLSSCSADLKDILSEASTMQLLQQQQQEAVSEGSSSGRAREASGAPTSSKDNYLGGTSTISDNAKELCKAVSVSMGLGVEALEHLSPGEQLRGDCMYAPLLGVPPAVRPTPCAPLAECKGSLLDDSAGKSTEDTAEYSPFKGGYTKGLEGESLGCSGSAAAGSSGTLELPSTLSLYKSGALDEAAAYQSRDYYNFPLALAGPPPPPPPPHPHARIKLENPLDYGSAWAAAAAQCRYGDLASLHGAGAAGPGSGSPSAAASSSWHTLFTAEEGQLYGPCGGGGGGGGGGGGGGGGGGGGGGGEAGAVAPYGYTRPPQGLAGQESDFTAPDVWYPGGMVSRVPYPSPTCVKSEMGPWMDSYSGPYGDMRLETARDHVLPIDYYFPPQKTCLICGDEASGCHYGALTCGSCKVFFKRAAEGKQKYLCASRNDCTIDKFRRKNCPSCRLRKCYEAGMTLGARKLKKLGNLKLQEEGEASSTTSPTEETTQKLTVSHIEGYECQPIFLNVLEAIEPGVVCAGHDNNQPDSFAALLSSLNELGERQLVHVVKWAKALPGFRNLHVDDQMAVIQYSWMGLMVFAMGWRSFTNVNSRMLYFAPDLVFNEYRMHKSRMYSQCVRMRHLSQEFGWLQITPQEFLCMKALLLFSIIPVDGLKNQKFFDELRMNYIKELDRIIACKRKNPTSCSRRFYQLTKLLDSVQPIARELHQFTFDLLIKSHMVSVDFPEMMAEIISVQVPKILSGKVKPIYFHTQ
Sequence (Q92793 2-2442): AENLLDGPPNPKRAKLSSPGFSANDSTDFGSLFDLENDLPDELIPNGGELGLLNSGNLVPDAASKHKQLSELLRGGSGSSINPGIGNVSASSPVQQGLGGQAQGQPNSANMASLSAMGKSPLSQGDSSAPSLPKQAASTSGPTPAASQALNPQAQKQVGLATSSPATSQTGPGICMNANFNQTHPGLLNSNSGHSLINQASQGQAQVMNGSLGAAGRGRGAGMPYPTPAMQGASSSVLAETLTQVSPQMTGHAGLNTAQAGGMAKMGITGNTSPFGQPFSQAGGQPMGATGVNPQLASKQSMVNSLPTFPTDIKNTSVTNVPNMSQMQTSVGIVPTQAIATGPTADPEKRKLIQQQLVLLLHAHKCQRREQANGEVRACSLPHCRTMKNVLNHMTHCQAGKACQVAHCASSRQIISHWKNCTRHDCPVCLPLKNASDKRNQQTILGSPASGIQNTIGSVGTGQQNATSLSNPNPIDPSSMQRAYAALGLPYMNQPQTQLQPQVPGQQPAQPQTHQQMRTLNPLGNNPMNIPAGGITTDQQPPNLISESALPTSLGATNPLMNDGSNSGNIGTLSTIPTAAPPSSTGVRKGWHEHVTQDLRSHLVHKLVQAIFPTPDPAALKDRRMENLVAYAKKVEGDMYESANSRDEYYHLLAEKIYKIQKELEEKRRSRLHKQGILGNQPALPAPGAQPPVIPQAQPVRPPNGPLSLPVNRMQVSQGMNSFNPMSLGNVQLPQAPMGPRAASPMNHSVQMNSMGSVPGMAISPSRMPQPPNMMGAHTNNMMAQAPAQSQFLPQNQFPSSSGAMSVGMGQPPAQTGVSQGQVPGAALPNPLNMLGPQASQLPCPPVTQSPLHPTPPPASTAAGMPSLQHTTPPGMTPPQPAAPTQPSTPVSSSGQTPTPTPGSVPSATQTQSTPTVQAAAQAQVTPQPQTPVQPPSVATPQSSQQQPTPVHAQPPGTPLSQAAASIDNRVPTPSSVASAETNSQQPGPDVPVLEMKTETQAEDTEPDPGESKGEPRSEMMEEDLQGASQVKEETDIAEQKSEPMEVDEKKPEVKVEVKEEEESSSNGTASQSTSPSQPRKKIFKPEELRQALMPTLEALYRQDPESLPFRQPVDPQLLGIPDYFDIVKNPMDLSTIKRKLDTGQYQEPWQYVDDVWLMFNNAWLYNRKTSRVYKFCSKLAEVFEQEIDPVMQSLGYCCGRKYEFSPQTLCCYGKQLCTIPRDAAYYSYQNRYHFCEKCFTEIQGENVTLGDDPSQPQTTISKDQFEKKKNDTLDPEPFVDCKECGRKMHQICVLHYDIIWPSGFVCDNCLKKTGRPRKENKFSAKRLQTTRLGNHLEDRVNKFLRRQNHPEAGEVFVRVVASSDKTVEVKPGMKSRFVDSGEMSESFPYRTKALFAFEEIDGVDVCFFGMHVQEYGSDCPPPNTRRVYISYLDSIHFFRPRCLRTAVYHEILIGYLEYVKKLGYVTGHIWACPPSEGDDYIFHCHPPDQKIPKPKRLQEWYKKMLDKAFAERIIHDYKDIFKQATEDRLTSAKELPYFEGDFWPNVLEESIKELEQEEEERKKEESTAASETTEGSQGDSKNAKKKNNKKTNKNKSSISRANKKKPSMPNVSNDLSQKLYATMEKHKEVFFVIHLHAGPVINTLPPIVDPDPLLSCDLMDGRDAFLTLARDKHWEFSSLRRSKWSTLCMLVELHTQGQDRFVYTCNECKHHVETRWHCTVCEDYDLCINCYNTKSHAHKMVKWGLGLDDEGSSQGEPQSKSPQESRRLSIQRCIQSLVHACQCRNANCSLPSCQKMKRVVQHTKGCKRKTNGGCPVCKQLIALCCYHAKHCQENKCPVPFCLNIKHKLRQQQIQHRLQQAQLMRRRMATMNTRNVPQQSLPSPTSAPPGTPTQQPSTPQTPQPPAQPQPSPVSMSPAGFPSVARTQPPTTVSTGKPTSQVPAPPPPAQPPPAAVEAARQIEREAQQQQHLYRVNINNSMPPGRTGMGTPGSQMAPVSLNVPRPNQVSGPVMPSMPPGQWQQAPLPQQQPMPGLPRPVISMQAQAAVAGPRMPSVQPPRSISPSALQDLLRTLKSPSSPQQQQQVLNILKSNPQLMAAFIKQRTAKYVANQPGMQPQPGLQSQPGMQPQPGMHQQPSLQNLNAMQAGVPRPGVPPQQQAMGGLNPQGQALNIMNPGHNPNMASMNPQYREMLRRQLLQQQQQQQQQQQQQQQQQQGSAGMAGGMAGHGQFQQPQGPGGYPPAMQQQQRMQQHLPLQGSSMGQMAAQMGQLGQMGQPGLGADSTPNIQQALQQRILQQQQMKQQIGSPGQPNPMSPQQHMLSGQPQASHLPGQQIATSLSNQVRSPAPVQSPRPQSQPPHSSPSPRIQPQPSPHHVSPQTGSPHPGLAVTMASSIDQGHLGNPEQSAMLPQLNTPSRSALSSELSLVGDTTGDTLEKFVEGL
Assay: Ternary complex formation assay (sandwich ELISA, AR capture, CBP antibody detection) in VCaP cell lysates
Assay type: cell-based
Settings: treated 1.5 hours, rabbit CBP or p300 antibody detection, average, read-out: Average Ternary Complex
measured-property: EC50

Lookup: Can you share its EC50? I mean this molecule: CC(=O)N1CCc2c(c(N3CCCc4cc(-c5cnn(C)c5)c(C(F)F)cc43)nn2C2CCN(CC3(C)CCN(c4ccc(C(=O)N[C@H]5CC[C@H](Oc6ccc(C#N)c(Cl)c6)CC5)nn4)CC3)CC2)C1 [Compound 100]
Found: < 1 nM

Lookup: Further, for CC(=O)N1CCc2c(c(N3CCCc4cc(-c5cnn(C)c5)c(C(F)F)cc43)nn2C2CCN(C[C@H]3CCN(c4ccc(C(=O)N[C@H]5CC[C@H](Oc6ccc(C#N)c(Cl)c6)CC5)nn4)C[C@H]3C)CC2)C1 (stereo in doubt) [Compound 101] ?
Found: < 1 nM

* * *

Tested on: VCaP cells
Test: VCaP growth inhibition assay (CTG)
Assay type: cell-based
Settings: Homo sapiens, 216 h, 30 pM R1881, 9 days
For each of the compounds below, state its IC50.

Lookup: Can you share its IC50? I mean this compound: CC(=O)N1CCc2c(c(N3CCCc4cc(-c5cnn(C)c5)c(C(F)F)cc43)nn2C2CCN(C[C@H]3[C@H](C)CN(c4ccc(C(=O)N[C@H]5CC[C@H](Oc6ccc(C#N)c(Cl)c6C)CC5)nn4)C[C@@H]3C)CC2)C1 [Compound 287]
Found: ≤ 100 pM

Lookup: Further, for CC(=O)N1CCc2c(c(-c3cccc4cc(-c5ccc(CCC6CCN(c7ccc(C(=O)N[C@H]8CC[C@H](Oc9ccc(C#N)c(Cl)c9)CC8)cn7)CC6)nc5)ncc34)nn2C2CCOCC2)C1 [Compound 165] ?
Found: 100 to 1000 pM

Lookup: Further, for CC(=O)N1CCc2c(c(N3CCCc4cc(-c5cnn(C)c5)c(C(F)F)cc43)nn2[C@H]2CC[C@@H](N3CCC4(CC3)CN(c3ccc(C(=O)N[C@H]5CC[C@H](Oc6ccc(C#N)c(Cl)c6)CC5)nn3)C4)CC2)C1 [Compound 192] ?
Found: ≤ 100 pM

Lookup: Further, for CC(=O)N1CCc2c(c(N3CCCc4cc(-c5cnn(C)c5)c(C(F)F)cc43)nn2C2CCN(C3CN(c4ccc(C(=O)N[C@H]5CC[C@H](Oc6ccc(C#N)c(Cl)c6)CC5)nn4)C3)CC2)C1 [Compound 206] ?
Found: ≤ 100 pM

* * *

Test system: VCaP cells
Assay: VCaP growth inhibition assay (CTG)
Type: cell-based
Details: Homo sapiens, 216 h, 30 pM R1881, 9 days
measured-property: IC50

Lookup: Can you share its IC50? I mean this compound: `COC(=O)N1c2ccc3c(nc(Cc4ccccc4)n3[C@@H]3CCC[C@H](OCC4CCN(c5ccc(C(=O)N[C@H]6CC[C@H](Oc7ccc(C#N)c(Cl)c7)CC6)nn5)CC4)C3)c2CC[C@@H]1C`
Found: 0.1 to 1 nM

Lookup: Further, for `CC(=O)N1CCc2c(c(-c3cccc4cc(-c5cnn(C)c5)ncc34)nn2C2CCN(CC3CCN(c4ccc(C(=O)N[C@H]5CC[C@H](Oc6ccc(C#N)c(Cl)c6)CC5)cn4)CC3)CC2)C1` ?
Found: ≤ 0.1 nM

Lookup: Further, for `CC(=O)N1CCc2c(c(N3CCCc4cc(-c5cnn(C)c5)c(C(F)F)cc43)nn2[C@H]2[C@@H]3C[C@H]2CN(CC2CCN(c4ccc(C(=O)N[C@H]5CC[C@H](Oc6ccc(C#N)c(Cl)c6)CC5)nn4)CC2)C3)C1` ?
Found: 0.1 to 1 nM

Lookup: Further, for `CC(=O)N1CCc2c(c(N3CCCc4cc(-c5cnn(C)c5)c(C(F)F)cc43)nn2C2CCN(C(=O)C3CCN(c4ccc(C(=O)N[C@H]5CC[C@H](Oc6ccc(C#N)c(Cl)c6)CC5)cn4)CC3)CC2)C1` ?
Found: 0.1 to 1 nM

Lookup: Further, for `CC(=O)N1CCc2c(c(-c3cccc4cc(-c5ccc(CCC6CCN(c7ccc(C(=O)N[C@H]8CC[C@H](Oc9ccc(C#N)c(Cl)c9)CC8)nn7)CC6)nc5)ncc34)nn2C)C1` ?
Found: ≤ 0.1 nM

Lookup: Further, for `CC(=O)N1CCc2c(c(N3CCCc4cc(C#N)ccc43)nn2C2CCN(C(=O)C3CCN(c4ccc(C(=O)N[C@H]5CC[C@H](Oc6ccc(C#N)c(Cl)c6)CC5)nn4)CC3)CC2)C1` ?
Found: ≤ 0.1 nM

Lookup: Further, for `Cc1cc2c(N3CCN(C)c4cc(-c5cnn(C)c5)c(C#N)cc43)cc(OC3CCN(c4ccc(C(=O)N[C@H]5CC[C@H](Oc6ccc(C#N)c(Cl)c6)CC5)nn4)CC3)cc2n(C)c1=O` ?
Found: 0.1 to 1 nM

Lookup: Further, for `CC(=O)N1CCc2c(c(N3CCCc4cc(-c5cnn(C)c5)c(C)cc43)nn2C2CCN(C3CCC4(CC3)CN(c3ccc(C(=O)N[C@H]5CC[C@H](Oc6ccc(C#N)c(C)c6)CC5)nn3)C4)CC2)C1` ?
Found: 0.1 to 1 nM

Lookup: Further, for `CC(=O)N1CCc2c(c(N3CCCc4cc(-c5cnn(C)c5)c(C(F)F)cc43)nn2C2CC3(C2)CC2(CCN(c4ccc(C(=O)N[C@H]5CC[C@H](Oc6ccc(C#N)c(Cl)c6)CC5)nn4)CC2)C3)C1` ?
Found: 0.1 to 1 nM

Lookup: Further, for `CC(=O)N1CCc2c(c(N3CCCc4cc(-c5cnn(C)c5)c(C(F)F)cc43)nn2[C@H]2CC[C@@H](OC3CN(c4ccc(C(=O)N[C@H]5CC[C@H](Oc6ccc(C#N)c(Cl)c6)CC5)nn4)C3)CC2)C1` ?
Found: ≤ 0.1 nM

Lookup: Further, for `CC(=O)N1CCc2c(c(N3CCCc4cc(-c5cnn(C)c5)c(C(F)F)cc43)nn2[C@H]2CC[C@]3(CCN(C4CN(c5ccc(C(=O)N[C@H]6CC[C@H](Oc7ccc(C#N)c(Cl)c7)CC6)nn5)C4)C3)CC2)C1` ?
Found: 0.1 to 1 nM

Lookup: Further, for `CC(=O)N1CCc2c(c(N3CCCc4cc(-c5cnn(C)c5)c(C(F)F)cc43)nn2C2CCN(C[C@H]3CCN(c4ccc(C(=O)N[C@H]5CC[C@H](Oc6ccc(C#N)c(Cl)c6)CC5)nn4)C[C@@H]3C)CC2)C1` ?
Found: ≤ 0.1 nM

Lookup: Further, for `CC(=O)N1CCc2c(c(-c3cccc4cc(-c5cnn(CCC6CC7(C6)CN(c6ccc(C(=O)N[C@H]8CC[C@H](Oc9ccc(C#N)c(Cl)c9)CC8)nn6)C7)c5)ncc34)nn2C)C1` ?
Found: ≤ 0.1 nM

Lookup: Further, for `CC(=O)N1CCc2c(c(N3CCCc4cc(-c5cnn(C)c5)ncc43)nn2C2CCN(C(=O)C3CCN(c4ccc(C(=O)N[C@H]5CC[C@H](Oc6ccc(C#N)c(Cl)c6)CC5)nn4)CC3)CC2)C1` ?
Found: 0.1 to 1 nM

Lookup: Further, for `CC(=O)N1CCc2c(c(-c3cccc4cc(-c5cnn(C)c5)ncc34)nn2C2CCN(CC3CCN(c4ccc(C(=O)N[C@H]5CC[C@H](Oc6ccc(C#N)c(Cl)c6)CC5)nn4)CC3)CC2)C1` ?
Found: ≤ 0.1 nM

Lookup: Further, for `CC(=O)N1CCc2c(c(N3CCCc4ccc(C(F)F)cc43)nn2C2CCN(C(=O)C3CCN(c4ccc(C(=O)N[C@H]5CC[C@H](Oc6ccc(C#N)c(Cl)c6)CC5)nn4)CC3)CC2)C1` ?
Found: ≤ 0.1 nM

Lookup: Further, for `CC(=O)N1CCc2c(c(N3CCCc4cc(-c5cnn(C)c5)c(C(F)F)cc43)nn2[C@H]2CC[C@H](OC3CN(c4ccc(C(=O)N[C@H]5CC[C@H](Oc6ccc(C#N)c(Cl)c6)CC5)nn4)C3)CC2)C1` ?
Found: ≤ 0.1 nM

Lookup: Further, for CC(=O)N1CCc2c(c(N3CCCc4cc(-c5cnn(C)c5)c(C)cc43)nn2C2CCN(CC3CCN(c4ccc(C(=O)N[C@H]5CC[C@H](Oc6ccc(C#N)c(C)c6C)CC5)nn4)CC3(C)C)CC2)C1 (stereo partly drawn) ?
Found: ≤ 0.1 nM

* * *

Molecular target: AR / CBP ternary complex (Homo sapiens, UniProt P10275+Q92793)
Assay: Ternary complex formation assay (sandwich ELISA, AR capture, CBP antibody detection) in VCaP cell lysates
Assay type: cell-based
Details: treated 1.5 hours, rabbit CBP or p300 antibody detection, average, read-out: Average Ternary Complex
measured-property: EC50

Lookup: AR / CBP ternary complex (Homo sapiens, UniProt P10275+Q92793) / EC50 / `CC(=O)N1CCc2c(c(-c3cccc4cc(-c5cnn(CCC6CCN(c7ccc(C(=O)N[C@H]8CC[C@H](Oc9ccc(C#N)c(Cl)c9)CC8)nn7)CC6)c5)ncc34)nn2C2CCC2)C1` : value?
Found: < 1 nM

Lookup: Further, for `COc1cc2c(cn1)N(c1nn(C3CCN(CC4CCN(c5ccc(C(=O)N[C@H]6CC[C@H](Oc7ccc(C#N)c(Cl)c7)CC6)nn5)CC4)CC3)c3c1CN(C(C)=O)CC3)CCC2` ?
Found: 10 to 100 nM

Lookup: Further, for CC(=O)N1CCc2c(c(N3CCCc4cc(-c5cnn(C)c5)c(C(F)F)cc43)nn2C2CCN(CC3CCN(c4ccc(C(=O)N[C@H]5CC[C@H](Oc6ccc(C#N)c(Cl)c6)CC5)nn4)CC3(C)C)CC2)C1 (stereo partly drawn) ?
Found: < 1 nM
